Tested on: MCF7 breast cancer cell lines
Assay: Cell viability analysis, WST-8 assay, MCF7
Details: Homo sapiens, MCF7, 72 h, read-out: Cell viability (%) WST-8, MCF7 (1 µM), compound 1 µM, 72 hours
QUANTITY_KIND: viability at 1 µM

Fc1ccccc1C1=CCN(c2nc(Nc3cc(C4CC4)[nH]n3)c3ccccc3n2)CC1 [compound 6k]; 91%

[Q] Quick one: give measured viability at 1 µM for O=C(c1ccccc1)N1CC2CC1CN2c1nc(Nc2cc(C3CC3)[nH]n2)c2ccccc2n1 (centres unmarked) [compound 15e]
[A] 68.3%

[Q] Quick one: give measured viability at 1 µM for CC(C)(C)OC(=O)N1CCN(c2nc(Nc3cc(C4CC4)[nH]n3)c3ccccc3n2)CC1 [compound 10]
[A] 61.4%

[Q] Quick one: give measured viability at 1 µM for CC(C)(C)OC(=O)N1CCC2(CC1)CN(c1nc(Nc3cc(C4CC4)[nH]n3)c3ccccc3n1)C2 [6d]
[A] 88.6%

[Q] Quick one: give measured viability at 1 µM for N#CCc1ccc(Nc2nc(Nc3ccc(Cl)nn3)c3ccccc3n2)cc1 [compound 3i]
[A] 95.6%

----------
Biological target: Recombinant GST-TAG-MASTL (Homo sapiens)
Construct: GST; purchased Thermo Fisher Scientific
Assay: HTRF-based kinase assay (HTRF KinEASE assay kit)
Format: biochemical
Conditions: HTRF; read-out: IC50(nM) MASTL activity
Excerpt: Recombinant GST-TAG-MASTL (Thermo Fisher Scientific, MA, USA) was used for HTRF-based kinase assays. The HTRF KinEASE assay kit (CisBio, MA, USA) was used according to the manufacturer's instructions.
QUANTITY_KIND: IC50 (nM)
The response must be a number in nM with no trailing unit.

// solved cases for IC50 follow
C1=C(Cc2ccccc2)CCN(c2nc(Nc3cc(C4CC4)[nH]n3)c3ccccc3n2)C1 [compound 6h]; 995
COc1cccc(S(=O)(=O)N2CC3CC2CN3c2nc(Nc3cc(C4CC4)[nH]n3)c3ccccc3n2)c1 (stereo not shown) [compound 15r]; 492
c1ccc2c(Nc3cc(C4CC4)[nH]n3)nc(Nc3ccc4cc[nH]c4c3)nc2c1 [compound 4dc]; 480
O=S(=O)(c1ccc(F)cc1)N1CC2CC1CN2c1nc(Nc2cc(C3CC3)[nH]n2)c2ccccc2n1 (stereo not shown) [compound 15n]; 327
N#Cc1ccccc1S(=O)(=O)N1CC2CCC1CN2c1nc(Nc2cc(C3CC3)[nH]n2)c2ccccc2n1 (stereo not shown) [compound 24e]; 213
c1ccc2c(Nc3cc(C4CC4)[nH]n3)nc(Nc3ccc4[nH]ncc4c3)nc2c1 [compound 4dd]; 157

[Q] Quick one: give measured IC50 for CC(=O)c1ccc(S(=O)(=O)N2CC3CC2CN3c2nc(Nc3cc(C4CC4)[nH]n3)c3ccccc3n2)cc1 (stereo not shown) [compound 15s]
[A] 354

[Q] Quick one: give measured IC50 for O=S(=O)(C1CCCCC1)N1CC2CC1CN2c1nc(Nc2cc(C3CC3)[nH]n2)c2ccccc2n1 (stereo not shown) [compound 15k]
[A] 152

[Q] Quick one: give measured IC50 for O=S(=O)(c1cccs1)N1CC2CC1CN2c1nc(Nc2cc(C3CC3)[nH]n2)c2ccccc2n1 (stereo not shown) [compound 15ab]
[A] 222

[Q] Quick one: give measured IC50 for O=C(c1ccccc1)N1CC=C(c2nc(Nc3cc(C4CC4)[nH]n3)c3ccccc3n2)CC1 [compound 9a]
[A] 203

[Q] Quick one: give measured IC50 for c1ccc(CCNc2nc(Nc3cc(C4CC4)[nH]n3)c3ccccc3n2)cc1 [compound 4ce]
[A] 692

[Q] Quick one: give measured IC50 for O=S(=O)(c1c(F)cccc1F)N1CC2CC1CN2c1nc(Nc2cc(C3CC3)[nH]n2)c2ccccc2n1 (stereo not shown) [compound 15p]
[A] 331

[Q] Quick one: give measured IC50 for O=S(=O)(Cc1ccccc1)N1CC2CC1CN2c1nc(Nc2cc(C3CC3)[nH]n2)c2ccccc2n1 (stereo not shown) [compound 15l]
[A] 226

----------
Listing: viability at 1 µM of selected compounds
System: MCF7 breast cancer cell lines
Experiment: Cell viability analysis, WST-8 assay, MCF7
Conditions: Homo sapiens, MCF7, 72 h, read-out: Cell viability (%) WST-8, MCF7 (1 µM), compound 1 µM, 72 hours
The response must be a number in % with no trailing unit.

CC(C)CN1CC2CC1CN2c1nc(Nc2cc(C3CC3)[nH]n2)c2ccccc2n1 (stereo not shown) [compound 15f]; 71.7

[Q] Quick one: give measured viability at 1 µM for N#CCc1ccc(Nc2nc(Nc3ccccc3F)c3ccccc3n2)cc1 [compound 3k]
[A] 120

[Q] Quick one: give measured viability at 1 µM for Cc1ccc(C2=CCN(c3nc(Nc4cc(C5CC5)[nH]n4)c4ccccc4n3)CC2)c(C)c1 [compound 6j]
[A] 45.6

[Q] Quick one: give measured viability at 1 µM for FC(F)(F)c1cccc(C2=CCN(c3nc(Nc4cc(C5CC5)[nH]n4)c4ccccc4n3)CC2)c1 [compound 6g]
[A] 95

[Q] Quick one: give measured viability at 1 µM for N#CCc1ccc(Nc2nc(Nc3nnc(C4CC4)s3)c3ccccc3n2)cc1 [compound 3l]
[A] 80.5

[Q] Quick one: give measured viability at 1 µM for NCCCNC(=O)c1ccc(Nc2nc(Nc3cc(C4CC4)[nH]n3)c3ccccc3n2)cc1 [4ab]
[A] 101

[Q] Quick one: give measured viability at 1 µM for c1ccc(CN2CC3CC2CN3c2nc(Nc3cn[nH]c3)c3ccccc3n2)cc1 (stereo not shown) [compound 28f]
[A] 110

----------
Target: Recombinant GST-TAG-MASTL (Homo sapiens)
Construct: GST; purchased Thermo Fisher Scientific
Sequence (Q96GX5 1-879): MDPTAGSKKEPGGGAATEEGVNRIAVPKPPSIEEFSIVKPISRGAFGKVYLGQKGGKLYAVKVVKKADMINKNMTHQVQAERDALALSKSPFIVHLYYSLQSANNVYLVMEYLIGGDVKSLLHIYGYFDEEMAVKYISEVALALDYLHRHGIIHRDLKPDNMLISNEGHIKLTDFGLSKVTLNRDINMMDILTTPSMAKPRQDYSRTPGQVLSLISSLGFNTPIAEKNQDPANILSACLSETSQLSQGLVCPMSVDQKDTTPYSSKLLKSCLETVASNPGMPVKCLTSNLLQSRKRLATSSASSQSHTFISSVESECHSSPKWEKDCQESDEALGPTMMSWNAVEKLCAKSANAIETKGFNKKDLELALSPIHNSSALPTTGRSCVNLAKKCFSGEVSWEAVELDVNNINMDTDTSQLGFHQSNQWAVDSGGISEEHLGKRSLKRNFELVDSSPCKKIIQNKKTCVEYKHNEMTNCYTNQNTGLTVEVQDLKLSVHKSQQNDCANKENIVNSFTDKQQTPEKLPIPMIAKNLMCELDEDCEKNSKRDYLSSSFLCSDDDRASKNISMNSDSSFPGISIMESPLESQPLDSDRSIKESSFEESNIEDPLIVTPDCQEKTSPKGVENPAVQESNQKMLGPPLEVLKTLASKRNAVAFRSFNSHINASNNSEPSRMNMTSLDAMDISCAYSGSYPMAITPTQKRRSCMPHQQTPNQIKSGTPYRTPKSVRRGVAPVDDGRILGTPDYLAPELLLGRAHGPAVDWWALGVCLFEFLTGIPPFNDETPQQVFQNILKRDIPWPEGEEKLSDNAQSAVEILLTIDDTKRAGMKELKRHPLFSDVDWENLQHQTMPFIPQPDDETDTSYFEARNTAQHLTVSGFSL
Assay: HTRF-based kinase assay (HTRF KinEASE assay kit)
Format: biochemical
Details: footnote b: concentration 10 µM; read-out: MASTL activity (%) HTRF
Mark True for reported activity at 10 µM of 20% or greater; mark False for anything smaller.

CCNC(=O)N1CCN(c2nc(Nc3cc(C4CC4)[nH]n3)c3ccccc3n2)CC1 [compound 12c]; True

[Q] Reported activity at 10 µM reaches at least 20% for CNc1nc(Nc2cc(C3CC3)[nH]n2)c2ccccc2n1 [compound 4cb] ?
[A] True

[Q] Reported activity at 10 µM reaches at least 20% for CN1CCN(c2nc(Nc3cc(C4CC4)[nH]n3)c3ccccc3n2)CC1 [compound 12a] ?
[A] True

[Q] Reported activity at 10 µM reaches at least 20% for Nc1nc(Nc2cc(C3CC3)[nH]n2)c2ccccc2n1 [compound 4ca] ?
[A] True

----------
Test system: pENSA
Assay: pENSA level by immunofluorescence (described method: in vitro kinase analysis with GST-tag-MASTL and His-tag-ENSA)
Type: cell-based
Conditions: compound 1 µM
Listing: pENSA (%) Immunofluor ecense (1 µM) of selected compounds
The response must be a number in % with no trailing unit.

c1ccc2sc(-c3ccc(Nc4nc(Nc5cc(C6CC6)[nH]n5)c5ccccc5n4)cc3)nc2c1; 88.8
O=C(Nc1ccc(F)cc1)N1CCN(c2nc(Nc3cc(C4CC4)[nH]n3)c3ccccc3n2)CC1 [compound 12d]; 46.3
Cc1cc(Cl)ccc1C1=CCN(c2nc(Nc3cc(C4CC4)[nH]n3)c3ccccc3n2)CC1; 101

[Q] Quick one: give measured pENSA (%) Immunofluor ecense (1 µM) for c1ccc2c(Nc3cc(C4CC4)[nH]n3)nc(N3CC4CCC3CN4)nc2c1 (stereo not drawn)
[A] 30.9

[Q] Quick one: give measured pENSA (%) Immunofluor ecense (1 µM) for CC(C)(C)OC(=O)N1CCC2(CC1)CN(c1nc(Nc3cc(C4CC4)[nH]n3)c3ccccc3n1)C2
[A] 96.4

[Q] Quick one: give measured pENSA (%) Immunofluor ecense (1 µM) for CC(C)(C)OC(=O)NCCCNC(=O)c1ccc(Nc2nc(Nc3cc(C4CC4)[nH]n3)c3ccccc3n2)cc1
[A] 185
